# tested-on: Neu5Ac(a2-3)Gal(b1-4)GlcNAc(b1-2)Man(a1-3)[GlcNAc(b1-2)Man(b1-4)GlcNAc(b1-2)Man(a1-6)]Man(b1-4)GlcNAc(b1-4)GlcNAc
# experimental-details: glycan array binding signal (z-score within array); higher = stronger binding
# particulars: glycan notation: IUPAC condensed, linker removed
Only a selection was taken, and the strongest signals are over-represented in it overall.
metric: glycan array binding signal (z-score)
Response field accepts a number only; no unit should be typed.

**Q:** Return reported glycan array binding signal (z-score); argument: Gal 1 (Canis lupus) (protein) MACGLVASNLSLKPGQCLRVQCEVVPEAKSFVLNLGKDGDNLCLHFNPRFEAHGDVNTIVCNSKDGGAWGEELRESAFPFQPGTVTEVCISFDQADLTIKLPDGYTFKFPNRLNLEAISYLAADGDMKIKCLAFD
**A:** 3.31
